Source listed as patent US20250276075A1.

# Experimental system: Axl (UniProt P30530)
# Sequence (P30530 26-451 limits assumed): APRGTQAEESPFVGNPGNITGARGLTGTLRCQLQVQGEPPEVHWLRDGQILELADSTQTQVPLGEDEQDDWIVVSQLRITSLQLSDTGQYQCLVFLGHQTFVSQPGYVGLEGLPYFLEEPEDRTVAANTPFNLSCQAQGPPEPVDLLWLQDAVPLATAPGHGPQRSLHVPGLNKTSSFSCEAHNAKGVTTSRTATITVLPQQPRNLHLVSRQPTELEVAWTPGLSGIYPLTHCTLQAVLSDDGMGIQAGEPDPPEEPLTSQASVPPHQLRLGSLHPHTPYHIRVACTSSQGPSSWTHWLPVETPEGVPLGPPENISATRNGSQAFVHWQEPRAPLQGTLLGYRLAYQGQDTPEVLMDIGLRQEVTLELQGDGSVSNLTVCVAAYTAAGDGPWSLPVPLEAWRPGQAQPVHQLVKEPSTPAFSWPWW
# Run description: ELISA, 1:9 dilution
Measured endpoint: Affinity ELISA CPE mutant ratio (1:9, pH 6.0/7.4)

The examples below pair each entry with its known result.
1) HC-S103M (antibody, V domains shown) VH: EVQLVQSGAEVKKPGATVKISCKVSGYSFTGHTMNWIRQPPGKGLEWIGLIKPSNGGTSYNQKFKGRVTISADKSISTAYLQWSSLKASDTAMYYCAHGHYEMYFAMDYWGQGTLVTVSS VL: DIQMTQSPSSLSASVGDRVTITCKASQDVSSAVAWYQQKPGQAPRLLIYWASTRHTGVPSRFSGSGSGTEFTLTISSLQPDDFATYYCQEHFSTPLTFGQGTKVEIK
1.81
2) LC-P095V (antibody, V domains shown) VH: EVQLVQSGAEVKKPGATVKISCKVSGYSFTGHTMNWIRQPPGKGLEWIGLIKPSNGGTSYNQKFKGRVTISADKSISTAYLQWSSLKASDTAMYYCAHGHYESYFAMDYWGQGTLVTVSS VL: DIQMTQSPSSLSASVGDRVTITCKASQDVSSAVAWYQQKPGQAPRLLIYWASTRHTGVPSRFSGSGSGTEFTLTISSLQPDDFATYYCQEHFSTVLTFGQGTKVEIK
2.13
3) LC-A034N (antibody, V domains shown) VH: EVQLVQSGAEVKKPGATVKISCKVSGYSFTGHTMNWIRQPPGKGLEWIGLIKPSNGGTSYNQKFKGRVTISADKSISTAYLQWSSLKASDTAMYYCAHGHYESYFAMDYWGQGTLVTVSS VL: DIQMTQSPSSLSASVGDRVTITCKASQDVSSAVNWYQQKPGQAPRLLIYWASTRHTGVPSRFSGSGSGTEFTLTISSLQPDDFATYYCQEHFSTPLTFGQGTKVEIK
2.4

Query :: Affinity ELISA CPE mutant ratio (1:9, pH 6.0/7.4) for HC-M107E (antibody, V domains shown) VH: EVQLVQSGAEVKKPGATVKISCKVSGYSFTGHTMNWIRQPPGKGLEWIGLIKPSNGGTSYNQKFKGRVTISADKSISTAYLQWSSLKASDTAMYYCAHGHYESYFAEDYWGQGTLVTVSS VL: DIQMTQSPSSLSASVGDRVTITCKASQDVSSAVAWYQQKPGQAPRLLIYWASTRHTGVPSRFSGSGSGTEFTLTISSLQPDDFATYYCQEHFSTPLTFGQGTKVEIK ?
Result :: 1.36
